measurement_protocol: Solvent solubility test
Assay type: physicochemical
Design: key: A: Soluble; B: Soluble, but undissolved residue was visually confirmed; C: Insoluble
test_context: 3% by mass, stood overnight at room temperature (15 to 25° C.), visually observed

[
  {
    "molecule": "NC(=O)CCC1(CCC(N)=O)c2ccccc2-c2ccccc21 [AAD-FL, 9,9-di-(β-carbamoyl-ethyl)fluorene, reference compound]",
    "Solubility in Ethyl acetate": "C"
  },
  {
    "molecule": "CCN(CC)C(=O)CCC1(CCC(=O)N(CC)CC)c2ccccc2-c2ccccc21 [DEAA-FL]",
    "Solubility in Ethyl acetate": "A"
  },
  {
    "molecule": "CN(C)C(=O)CCC1(CCC(=O)N(C)C)c2ccccc2-c2ccccc21 [DMAA-FL]",
    "Solubility in Ethyl acetate": "C"
  },
  {
    "molecule": "CC(C)NC(=O)CCC1(CCC(=O)NC(C)C)c2ccccc2-c2ccccc21 [NIPAM-FL]",
    "Solubility in Ethyl acetate": "C"
  }
]

* * *

measurement_protocol: 5% mass reduction temperature (TG-DTA)
Assay type: physicochemical
test_context: nitrogen atmosphere, 50 to 400° C., heating rate 10° C./min
Protocol: (5% Mass Reduction Temperature) The temperature, at which the mass of the sample is reduced by 5% by mass, was measured using a Thermogravimeter-Differential Thermal Analyzer (TG-DTA) (manufactured by PerkinElmer, Inc., “TGA-4000”) in a nitrogen atmosphere, under the condition of a measurement temperature range of 50 to 400° C. with a heating rate of 10° C./min.
readout_kind: 5% mass reduction temperature
Write the figure, then the unit, nothing else.

// below: answered compounds
[
  {
    "compound": "CC(C)NC(=O)CCC1(CCC(=O)NC(C)C)c2ccccc2-c2ccccc21 [NIPAM-FL]",
    "5% mass reduction temperature": "257 °C"
  },
  {
    "compound": "CN(C)C(=O)CCC1(CCC(=O)N(C)C)c2ccccc2-c2ccccc21 [DMAA-FL]",
    "5% mass reduction temperature": "318 °C"
  },
  {
    "compound": "NC(=O)CCC1(CCC(N)=O)c2ccccc2-c2ccccc21 [AAD-FL, 9,9-di-(β-carbamoyl-ethyl)fluorene, reference compound]",
    "5% mass reduction temperature": "320 °C"
  }
]

Next, consider the following compound.
Notebook: CCN(CC)C(=O)CCC1(CCC(=O)N(CC)CC)c2ccccc2-c2ccccc21 [DEAA-FL] , 5% mass reduction temperature read as 294 °C

* * *

measurement_protocol: Solvent solubility test
Format: physicochemical
Design: key: A: Soluble; B: Soluble, but undissolved residue was visually confirmed; C: Insoluble
test_context: 3% by mass, stood overnight at room temperature (15 to 25° C.), visually observed

[
  {
    "compound": "CC(C)NC(=O)CCC1(CCC(=O)NC(C)C)c2ccccc2-c2ccccc21",
    "Solubility in Toluene": "C"
  },
  {
    "compound": "CN(C)C(=O)CCC1(CCC(=O)N(C)C)c2ccccc2-c2ccccc21",
    "Solubility in Toluene": "C"
  },
  {
    "compound": "CCN(CC)C(=O)CCC1(CCC(=O)N(CC)CC)c2ccccc2-c2ccccc21",
    "Solubility in Toluene": "A"
  },
  {
    "compound": "NC(=O)CCC1(CCC(N)=O)c2ccccc2-c2ccccc21 [AAD-FL, 9,9-di-(β-carbamoyl-ethyl)fluorene, reference compound]",
    "Solubility in Toluene": "C"
  }
]
